measured-attribute: melting point (°C)
Could you give me the number in °C? Just the number is fine.

In: State its melting point: CSc1sc(C(N)=O)c(C(C)C)c1-c1oncc1C
Out: 105

In: State its melting point: COc1ccnc(CSc2nc3cc(C(F)(F)F)ccc3[nH]2)c1C
Out: 148

###

measured-attribute: melting point

In: State its melting point: Cc1cc(Nc2ncnc3ccn(CCNC(=O)C(C)(C)C)c23)ccc1Oc1cccc2sncc12
Out: 189 to 191 °C

In: State its melting point: CC(C)(C)OC(=O)NCCNC(=O)c1ncccc1Oc1ccc(Cl)cc1
Out: 120 to 122 °C

In: State its melting point: CC(C)C[C@@H](C#N)NC(=O)[C@@H]1CCCC[C@@H]1NC(=O)c1cc2ccccc2n1CCO
Out: 59 to 63.5 °C

In: State its melting point: CCCCCS(=O)(=O)NC(=O)/C=C/c1ccc(OC(C)C)cc1Oc1ncc(C(F)(F)F)cc1Cl
Out: 142 to 144 °C

In: State its melting point: CCC(=O)NC1CCc2c(ccc(OC)c2N)C1 (stereo not drawn)
Out: 141 °C

In: State its melting point: Cc1cn(C2CCc3ccccc3C2)c(=S)n1Cc1ccc(C(=O)O)cc1 (stereo not drawn)
Out: 181 to 182 °C

In: State its melting point: COc1ccc2c(c1)c(Cc1cc(=O)n(-c3cccc(Cl)c3)[nH]1)c(C)n2C(=O)c1ccc(Cl)cc1
Out: 148 to 150 °C

In: State its melting point: NC(=O)Cc1c[nH]c2ncccc12
Out: 180 to 181 °C

In: State its melting point: O=C(O)COc1ccc(OCCC(c2ccccc2)(c2ccccc2)c2ccccc2)cc1
Out: 66 to 68 °C

In: State its melting point: O=S(=O)(C(=CNc1ccccc1C(F)(F)F)S(=O)(=O)c1ccc(Cl)cc1)c1ccc(Cl)cc1
Out: 169 to 171 °C

In: State its melting point: O=C(NCc1cn(-c2ccc(N3CCOCC3)c(F)c2)nn1)C(Cl)Cl
Out: 190 °C

In: State its melting point: Cc1nc2ccccc2c(=O)n1NC(=O)Nc1ccc(Cl)cc1
Out: 228 to 230 °C

In: State its melting point: COc1ccc(-c2nc(Sc3ccc(F)cc3F)[nH]c2-c2ccc(OC)cc2)cc1
Out: 174 to 176 °C

###

measured-attribute: melting point

In: State its melting point: CCCC(=O)CCCC(=O)CCCSCCCC(C)(C)C(=O)OCC
Out: 104 to 105 °C

In: State its melting point: CSC(=CC(=O)c1cncc(F)c1)SC
Out: 150 to 152 °C

In: State its melting point: CCCc1c(CSc2nccc(OCC(=O)OCC)n2)ccc(C(C)=O)c1O
Out: 112 to 117 °C

In: State its melting point: Cc1c(C)c2c3c(cc(C)c2[nH]c1=O)CC(CN=[N+]=[N-])O3 (stereo unspecified)
Out: 187 to 189 °C

In: State its melting point: Cc1csc(-c2nnc(NC(C)c3ccccc3)c3ccccc23)c1 (stereo unspecified)
Out: 118 to 121 °C

In: State its melting point: O=[N+]([O-])c1cccc(Nc2nccc(Sc3cccc(Br)c3)n2)c1
Out: 208 to 209 °C

###

measured-attribute: melting point

In: State its melting point: Cc1cc2n(c1)Cc1cc(Cl)ccc1N=C2N1CCN(CC(C)(C)C(=O)O)CC1
Out: 246 °C

In: State its melting point: CN1C(=O)[C@H](NC(=O)/C=C/c2cccc(Br)c2)N=C(c2ccccc2)c2ccccc21
Out: 221 °C

In: State its melting point: NC(=O)Cn1cc(-c2ccccc2)c2cc(Cl)ccc21
Out: 220 to 221 °C

In: State its melting point: O=C(c1cccs1)C1(c2ccc(Cl)cc2)CCC1
Out: 74 to 76 °C

In: State its melting point: CC(=O)NC[C@H]1CN(c2ccc(C(=O)c3cnc4ccc(Cl)cn34)cc2)C(=O)O1
Out: 234 to 235 °C

In: State its melting point: N#CN=C(NCCO)NCc1ccc(-c2csc(N=C(N)N)n2)o1
Out: 208 to 209 °C

In: State its melting point: Cc1noc(NS(=O)(=O)c2ccsc2C(=O)NS(=O)(=O)c2cccc3c(N(C)C)cccc23)c1Br
Out: 184 to 186 °C

In: State its melting point: CS(=O)(=O)OCc1cc(OCc2ccccc2)cc(OCc2ccccc2)c1
Out: 85 to 86 °C

In: State its melting point: CC(=O)c1ccc2c(c1)oc(=O)n2CCCCl
Out: 100 to 103 °C

In: State its melting point: Cc1ccc(-c2cc(C(F)(F)F)nn2-c2ccc(C#N)cc2)cc1
Out: 125 to 126 °C

In: State its melting point: C#CC(O)c1csc(C)n1 (stereo unspecified)
Out: 94 °C

In: State its melting point: CC(=O)NC(C(=O)OCc1cc(C)cc(C)c1)C1c2ccccc2-c2ccccc21 (stereo unspecified)
Out: 162 to 164 °C

In: State its melting point: CCC(ON=c1c2nccc3cccc(c32)n2cccc12)C(=O)O (stereo unspecified)
Out: 180 °C

In: State its melting point: O=C1COc2c(cc(Cl)cc2C(=O)NC2CCN(CCc3ccccc3)CC2)N1
Out: 233 to 235 °C

In: State its melting point: Cn1c2c(c3cc(OCc4ccccc4)ccc31)CC(C(N)=O)C2 (stereo unspecified)
Out: 145 to 148 °C

In: State its melting point: COC(=O)C(C)Oc1ccc(OCc2ccccc2)cc1 (stereo unspecified)
Out: 63 to 65 °C

###

Can you tell me melting point for the items I'm about to list?

In: State its melting point: CC(C)(C)[Si](C)(C)OC(=O)O[Si](C)(C)C(C)(C)C
Out: 128 to 130 °C

In: State its melting point: COc1ccc2c(c1)c(Cc1cc(=O)n(C)[nH]1)c(C)n2C(=O)c1ccc(Cl)cc1
Out: 146 to 147 °C

In: State its melting point: NS(=O)(=O)c1ccc(-n2nc(C(F)(F)F)cc2-c2ccc(F)cc2)cc1F
Out: 127 to 130 °C

###

Can you tell me melting point for the items I'm about to list?

In: State its melting point: CN(C)c1cc(=S)ss1
Out: 193 °C

In: State its melting point: N#CC(C(=O)Nc1ccccc1)C(=O)c1nn(-c2ccccc2)c2c1COc1ccc(Cl)cc1-2 (configuration not stated)
Out: 243 to 246 °C

In: State its melting point: CN(C)c1ccc(C(=O)N[C@H](Cc2ccc(C(F)(F)F)cc2)[C@@H](O)c2ccc(F)cc2)c2ccccc12 (racemic)
Out: 169 to 170 °C

In: State its melting point: CC(=O)C(C)(C)COS(=O)(=O)c1ccc(C)cc1
Out: 49 to 52 °C

In: State its melting point: Cc1ccccc1CC(=NC#N)NC(NC(=O)Cc1ccccc1)C(C)(C)C (configuration not stated)
Out: 182 to 183 °C

In: State its melting point: COc1cc(-c2ccccc2)c(C)cc1CC(=O)O
Out: 127 to 128 °C

In: State its melting point: COC(=O)C(Oc1ccc(C2CCCCC2)cc1)c1ccc(Oc2ccc(Cl)cc2)cc1 (configuration not stated)
Out: 122 to 124 °C

In: State its melting point: CCOC(=O)C(=CNc1cc(=O)c2ccccc2o1)C(=O)OCC
Out: 138 to 140 °C

In: State its melting point: Cc1ccccc1CCC(C)(C)NC(=O)n1nc(N(C)C)n(N)c1=O
Out: 117 °C

In: State its melting point: CCC(OCC(F)F)c1ccc(Cl)c2nc3n(c12)CCCN3c1ccc(OC)nc1C (configuration not stated)
Out: 130 to 132 °C

In: State its melting point: COCC1CN(c2ccc3cc(OCC4CC4)ccc3c2)C(=O)O1 (configuration not stated)
Out: 119 to 120 °C

In: State its melting point: O=C(NCCCn1ccnc1)c1cccc(Cl)c1
Out: 125 to 127 °C

In: State its melting point: Cc1oc(-c2ccccc2)nc1CCC(=O)c1ccc(CCC2OC(=O)NC2=O)cc1 (configuration not stated)
Out: 173 to 174 °C

In: State its melting point: CCOC(=O)c1cc2ccc3c(c2cc1OCC)OC(n1cccc1)=C(C#N)C3c1cccc([N+](=O)[O-])c1 (configuration not stated)
Out: 202 to 203 °C

In: State its melting point: CSc1nc(NCC=C(C)C)c2ccnc-2[nH]1
Out: 155 to 156 °C

In: State its melting point: CN(C)c1nnc(-c2ccc3occ(-c4cccc(OC(F)(F)F)c4)c3c2)o1
Out: 105 to 106 °C

In: State its melting point: CC(C)C1(C)N=C(c2ccc(C(C)(C)O)cn2)NC1=O (configuration not stated)
Out: 166 to 168 °C

In: State its melting point: CCCc1nc(CO)n2[nH]c(=O)nc2c1Cc1ccc(-c2ccccc2-c2nnn[nH]2)cc1
Out: 182 to 183 °C

In: State its melting point: CS(=O)(=O)c1ccc(-c2cc(CO)cn2-c2ccc(F)cc2)cc1
Out: 88 to 90 °C

In: State its melting point: COC(=O)C(C)Oc1ccccc1S(=O)(=O)NC(=O)Nc1nc(C)cc(C)n1 (configuration not stated)
Out: 200 to 203 °C

In: State its melting point: CON(C)C(=O)c1cc(-c2ccccc2)n[nH]1
Out: 135 to 138 °C

In: State its melting point: CC(C)(CO)CCCNC(=O)NCCCC(C)(C)CO
Out: 81 to 82 °C

In: State its melting point: COc1ccc2nc(-c3nc(N)nc(N)n3)sc2c1
Out: > 250 °C

In: State its melting point: C=CCOc1cccc(-n2cnc(C(=O)OCC)c2)c1
Out: 53 to 55 °C

In: State its melting point: COC(=O)c1cccc(Oc2cccc(-c3nn(Cc4ccc(C(F)(F)P(=O)(O)O)c(F)c4)c(=Nc4ccc(Cl)c(Cl)c4)s3)c2)c1
Out: 137 to 139 °C

In: State its melting point: Nc1nc(-c2cccnc2Cl)c(-c2cccnc2Cl)s1
Out: 273 to 274 °C

In: State its melting point: CCOC(=O)c1c(CC)nn2c(-c3cccnc3)ccnc12
Out: 119 to 120 °C

In: State its melting point: CN1CC(CCN2CCN(c3ccc(C(F)(F)F)cc3)CC2)OC1=O (configuration not stated)
Out: 116 to 117 °C

In: State its melting point: CC(C)(C)c1cc(C(=O)c2cccs2)cc(CN2CCSCC2)c1O
Out: 165 to 166 °C

In: State its melting point: Cc1ncn(Cc2ccc(NC(=O)C(F)(F)F)cc2C(F)(F)F)c1C
Out: 238 to 239 °C

In: State its melting point: OCCc1ccccc1Nc1ncc2c(n1)-c1ccccc1[C@H](c1ccccc1F)C2
Out: 162 to 163 °C

In: State its melting point: CC1c2ccccc2CCN1C(=O)c1cc2ncc(Br)cn2n1 (configuration not stated)
Out: 121 to 123 °C

In: State its melting point: CC(=O)OC1CSC(Oc2cccnc2CN(C)C)C(OC(C)=O)C1OC(C)=O (configuration not stated)
Out: 105 °C

In: State its melting point: CC(C)(C)C(NC(=O)c1cc(F)cc(F)c1)Nc1c(Nc2cccnc2Cl)c(=O)c1=O (configuration not stated)
Out: 215 to 217 °C

In: State its melting point: COc1ccc([C@@H]2CN(C)CC[C@@H]2NC(=O)c2ccc(Cl)c(Cl)c2)cc1OC (relative stereo)
Out: 134 to 135 °C

In: State its melting point: C#CCN(C(=O)OC(C)(C)C)C1CCc2ccc([N+](=O)[O-])cc21 (configuration not stated)
Out: 56 to 59 °C

In: State its melting point: CC(=O)Oc1ccccc1C(=O)NC(S(=O)C(C)C)C(Cl)(Cl)Cl (configuration not stated)
Out: 90 to 92 °C
